- Tested on: MDA-MB-468 breast
- assayDetails: NCI-60 one-dose screen, 48 h (100 = growth as untreated, 0 = no growth, -100 = all killed)
- conditionDescription: 10 µM unless noted
Compounds without any hit were thinned out: in the full panel of roughly 83,000, 20% have a hit.
measurementKind: growth (%)
All answers are understood in %, so give the number only.

compound: O=S(=O)(NCCCNc1nccc(-c2c(-c3cccc(F)c3)nc3occn23)n1)c1cccc2ccccc12
valueUnits: %
growth: 15.3
//
compound: C#Cc1cccc(Nc2nc(Cl)nc3cc(NC(=O)CCl)ccc23)c1
valueUnits: %
growth: -71
//
compound: COc1ccc(CCN2CC=Cn3c2nc2ccccc2c3=O)cc1
valueUnits: %
growth: -0.686
//
compound: O=C(Nc1nc2cc(C(=O)N3CCN(C(c4ccccc4)c4ccccc4)CC3)ccc2o1)c1ccc(NC2CCCCC2)c([N+](=O)[O-])c1
valueUnits: %
growth: 75.2

Turning now to a further compound:
Find growth (MDA-MB-468 breast) for the entry NC1=NC(SCc2ccccc2CCl)c2ncn(Cc3ccccc3CCl)c2N1 (stereo not given)
-33.2

---

- Tested on: MDA-MB-468 breast
- assayDetails: NCI-60 one-dose screen, 48 h
- conditionDescription: 10 µM unless noted
About 83,000 compounds went through this panel and 20% of them were active in at least one assay; those are over-represented in the sample as a whole. Active and inactive are the calls of the source. The calls were made as follows: active = growth percent below 10; inactive = the rest.
Write down one outcome, taken from active, inactive

structureNotation: COc1cnc2c(c1)C(=O)c1c-2n(CCCN2CCCC2)c(=O)c2cc(Cl)ccc12
targetOfAssay: MDA-MB-468 breast
label: inactive

structureNotation: O=C(Nc1ccc(Br)cc1)Nc1cccc(Br)c1
targetOfAssay: MDA-MB-468 breast
label: inactive

Write down the call the test reported for this compound. Item: `O=C(c1ccc(-c2nc(CSc3nc4ccccc4s3)no2)cc1)N1CCSCC1`
active

Write down the call the test reported for this compound. Item: `CN(CCO)c1ccc(N2Cc3ccccc3OC3=C2C(=O)c2c(O)ccc(O)c2C3=O)cn1`
active

Write down the call the test reported for this compound. Item: `COc1ccc(C(=O)c2sc3nc4c(c(C(F)(F)F)c3c2N)CN(C(C)=O)CC4)cc1OC`
inactive

---

- System: MDA-MB-468 breast
- assayDetails: NCI-60 one-dose screen, 48 h (100 = growth as untreated, 0 = no growth, -100 = all killed)
- conditionDescription: 10 µM unless noted
The panel holds about 83,000 compounds, 20% with a hit somewhere; the sample as a whole holds those more often. Activity calls are given as the source filed them. How the source made its calls: active means growth percent below 10; inactive means the rest.
measurementKind: growth

Examples with their reported growth follow.
compound: Nc1cc2[nH]c(=O)c3ccccc3c2cc1Br
measurementKind: growth
result: -50.6% (active)

compound: C#CCN=C[C@]12CC[C@@H](C(=C)C)[C@@H]1[C@H]1CC[C@@H]3[C@@]4(C)CCC(=O)C(C)(C)[C@@H]4CC[C@@]3(C)[C@]1(C)CC2
measurementKind: growth
result: 40.3% (inactive)

compound: COc1ccc(-n2c(SCc3cc(OC)c(OC)c(OC)c3)nc3ccc(C)cc3c2=O)cc1
measurementKind: growth
result: 46.8% (inactive)

compound: Oc1[nH]c2ccccc2c1/C=c1/ccc2c(c1)N=C(c1ccc(C(F)(F)F)cc1)N=2
measurementKind: growth
result: 43.6% (inactive)

compound: Cc1ccc(O)c(C(=O)O)c1
measurementKind: growth
result: 106% (inactive)

Find growth (MDA-MB-468 breast) for the entry `CC(C)C[C@H](NC(=O)Cn1ccc2ccccc2c1=O)B(O)O`
0.399% (active)

Find growth (MDA-MB-468 breast) for the entry COc1cccc(C2=NN3C(C2)c2cc(Br)cc(OC)c2OC32CCN(Cc3ccccc3)CC2)c1 (centres undefined)
96.4% (inactive)

Find growth (MDA-MB-468 breast) for the entry `O=[N+]([O-])c1cc(S(=O)(=O)Nc2ccccc2)ccc1Cl`
-33.4% (active)

Find growth (MDA-MB-468 breast) for the entry COc1ccc2c(c1)C(C)Cc1c(Cl)nc(C)nc1N2C (centres undefined)
25.8% (inactive)

Find growth (MDA-MB-468 breast) for the entry `Cc1ccc(/C=N/NC(=O)CSc2nc3ccccc3c(=O)n2Cc2ccc(S(N)(=O)=O)cc2)cc1`
81.2% (inactive)

Find growth (MDA-MB-468 breast) for the entry COc1ccc(C(c2cc(OC)c(OC)c(OC)c2)N2CCCCC2)cc1 (centres undefined)
9.32% (active)

Find growth (MDA-MB-468 breast) for the entry `CN1CCN=C1c1ccc(NC(=O)c2ccc(C(=O)Nc3ccc(C4=NCCN4C)cc3)cc2)cc1`
81.2% (inactive)
